Data origin, for the record: the METLIN SMRT retention time set (Domingo-Almenara et al. 2019)

Assay Protocol: gradient 5% acetonitrile 3 min, to 50% in 2 min, to 85% in 15 min, held 3 min, 100 µL/min
Run Parameters: column: Zorbax Extend-C18 2.1 x 50 mm; eluents: water / acetonitrile, 0.1% formic acid
Property Name: RP-LC retention time (s)

Record excerpt, results attached:
Compound | RP-LC retention time [s]
CCCCn1cc(S(=O)(=O)N2CCN(c3ccccc3C)CC2)c2cccnc21 | 1280
OCCNCc1ccc(-c2cccc(C(F)(F)F)c2)o1 | 649
COc1ccc(-c2cc3n(n2)CCCN(C(=O)CCC(=O)c2ccc(F)cc2)C3)cc1 | 879
COC(=O)c1c(NC2CCCC2)c2cccc(Cl)c2[nH]c1=O | 830
COC(=O)C(C)NC(=O)N1CCC2(CC1)Nc1cc(F)ccc1-n1cccc12 (stereo not given) | 865
COc1ccccc1NC(=O)c1csc2c1CCCC2 | 1190
O=C(Nc1ccc(S(=O)(=O)Nc2nccs2)cc1)c1ccc([N+](=O)[O-])o1 | 641
CCOCCCNC(=O)c1cc2sc(CC)cc2n1C | 960

(I) Cn1nc(-c2nnc(-c3ccccc3F)o2)c2c1CCN(S(=O)(=O)c1cccc(C#N)c1)C2
(II) COc1ccc(CNC(=O)c2cn3ccc(C)cc3n2)cc1
(III) O=C(CCC1CCCC1)N1CCC(c2noc(-c3ccc(Cl)cc3)n2)CC1
INPUT: Highest RP-LC retention time first, then in falling order down to the smallest. Sort and list the labels as requested.
OUTPUT: III, I, II
(III: 1320 s, I: 885 s, II: 545 s)

(A) O=C(N[C@@H]1CN(Cc2ccc3c(c2)CCO3)C[C@H]1CO)C1CC1
(B) CC(C)Cc1nc(-c2ccccc2)oc1CC(=O)NCc1cccc(Cl)c1
INPUT: Return label of the item with the larger RP-LC retention time. Candidates: A , B . Output the label that corresponds to your choice.
OUTPUT: B

(A) CCCn1cnc2c(Sc3c([N+](=O)[O-])ncn3C)nc(N)nc21
(B) O=C(CSc1cc(N2CCN(c3ccccc3F)CC2)ncn1)N1CCc2ccccc21
INPUT: Looking only at measured RP-LC retention time, which entry is lower, A or B ? Output the label that corresponds to your choice.
OUTPUT: A

(A) O=C(Cc1csc2nc(-c3ccccc3)cn12)NC1CCCc2ccccc21 (stereo not given)
(B) Cc1cc(C)n(CCC(=O)N[C@@H]2CN(S(C)(=O)=O)C[C@H]2CN(C)C)n1
INPUT: Return label of the item with the larger RP-LC retention time. Candidates: A , B . Output the label that corresponds to your choice.
OUTPUT: A
(A: 851 s, B: 564 s)

(I) O=C(NC1CCCC1)N1CCN(Cc2nc3cc(-c4ccccc4)ccc3o2)CC1
(II) CC(C)C(=O)NC(C)c1nc2ccccc2n1CC(N)=O (stereo not given)
INPUT: Return label of the item with the larger RP-LC retention time. Candidates: I , II . Output the label that corresponds to your choice.
OUTPUT: I
(I: 787 s, II: 503 s)

* * *

Assay Protocol: gradient 5% acetonitrile 3 min, to 50% in 2 min, to 85% in 15 min, held 3 min, 100 µL/min
Run Parameters: column: Zorbax Extend-C18 2.1 x 50 mm; eluents: water / acetonitrile, 0.1% formic acid
Property Name: RP-LC retention time (s)

Record excerpt, results attached:
Molecule | RP-LC retention time, s
COc1ccc(CNC(=O)C2(C)CCCN(S(=O)(=O)c3ccccc3F)C2)cc1 (stereo not given) | 900
O=C(Nc1cccc(F)c1)C1CCN(C(=O)c2ncn3c2COC(c2ccc(F)cc2)C3)CC1 (stereo not given) | 832
Cc1ccc(-c2cc(C(=O)NC3CCCCC3)c(C)[nH]2)cc1 | 958
CCC1CCCCN1CCCNC(=O)C1CCN(c2ncnc3onc(C)c23)CC1 (stereo not given) | 579
CN1C(=O)C(C)(C(=O)N2CCC(Cc3ccccc3)CC2)Oc2cccnc21 (stereo not given) | 1020

(I) Cn1cnnc1SCCNC(=O)c1cc(-c2ccc(F)cc2)c[nH]1
(II) CCN1C(=O)c2ccccc2Oc2ccc(C(=O)N3CCN(c4cccc(C)c4)C(C)C3)cc21 (stereo not given)
INPUT: Looking only at measured RP-LC retention time, which entry is lower, I or II ? Output the label that corresponds to your choice.
OUTPUT: I

(a) O=C(NCc1ccc(F)cc1)N1CCCC(Cn2c(C3CC3)nc3cccnc32)C1 (stereo not given)
(b) O=C(CCS(=O)(=O)c1ccccc1)Nc1nc(-c2cc(Cl)sc2Cl)cs1
INPUT: Looking only at measured RP-LC retention time, which entry is lower, a or b ? Output the label that corresponds to your choice.
OUTPUT: a
(a: 669 s, b: 1060 s)

(I) Cc1ccccc1-c1nc(-c2ccc3c(c2)nnn3CCN2CCOCC2)no1
(II) O=C(Cc1ccc(Cl)cc1)N1CCc2cc(-c3ccno3)ccc21
INPUT: Return label of the item with the larger RP-LC retention time. Candidates: I , II . Output the label that corresponds to your choice.
OUTPUT: II
(II: 1030 s, I: 706 s)

(A) Cc1ccc(-c2noc(CCN3CCN(c4ncccn4)CC3)n2)cc1
(B) CCCn1cc(S(=O)(=O)Nc2ccc(Cl)cc2F)c2cccnc21
INPUT: Return label of the item with the larger RP-LC retention time. Candidates: A , B . Output the label that corresponds to your choice.
OUTPUT: B
(B: 980 s, A: 677 s)
